Origin of the recorded values: PubChem BioAssay AID588405

- measurement_notes: inhibition of PEG-3 promoter activity – cell-based, HeLa, luciferase luminescence, primary screen (AID 588405)
- measurement_context: HeLa PEG-Prom luciferase reporter, overnight, at 20 µM
Screen size: about 360,000 compounds; about 6,200 (1.7%) were called active.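 Rule for the calls: active = inhibition of at least 50% at 20 µM; inactive = the rest.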 Shown is part of a subset that was picked to be rich in actives.
Labels: active, inactive

[
  {
    "compound": "CC1(C(=O)NS(=O)(=O)c2cccc(OC(F)F)c2)CCN1C(=O)C1CC1 (stereo unspecified)",
    "qualitative_label": "inactive"
  },
  {
    "compound": "CC(C)CN1CCC1(C)C(=O)Nc1ccc(OC(F)F)cc1 (stereo unspecified)",
    "qualitative_label": "inactive"
  },
  {
    "compound": "COC(=O)c1c(NC(=O)COc2ccc(Cl)cc2Cl)sc2c1CC(C)(C)NC2(C)C",
    "qualitative_label": "active"
  },
  {
    "compound": "Cc1ccccc1Cn1c(C)c(C(=O)NCc2cccc(C(F)(F)F)c2)sc1=O",
    "qualitative_label": "inactive"
  },
  {
    "compound": "COc1ccccc1CNC(=O)c1cc(-c2cc(F)ccc2OC)n[nH]1",
    "qualitative_label": "inactive"
  },
  {
    "compound": "O=C(O)CCN1C(=O)CC2(CCCCC2)C1=O",
    "qualitative_label": "inactive"
  },
  {
    "compound": "CC(C)Oc1c(Br)cc(Br)cc1/C=N/NC(N)=S",
    "qualitative_label": "inactive"
  },
  {
    "compound": "CC1(C(=O)NS(=O)(=O)C2CC2)CCCN(C(=O)CSc2ccccc2)C1 (stereo unspecified)",
    "qualitative_label": "inactive"
  },
  {
    "compound": "Cc1cc(Cl)ccc1-c1nc(NCCN(C)C)nc2ccsc12",
    "qualitative_label": "inactive"
  },
  {
    "compound": "COC(=O)c1ccc2nc(C3CCCCC3)c(Cc3cccc(F)c3)n2c1",
    "qualitative_label": "inactive"
  },
  {
    "compound": "CC1(C(=O)NS(=O)(=O)c2ccccc2)CCN1C(=O)c1ccccc1 (stereo unspecified)",
    "qualitative_label": "inactive"
  }
]
